B1: ZNF263 (parent)
chain: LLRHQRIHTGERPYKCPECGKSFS

# Variants of: B1
# test: protein stability index of a GFP-peptide fusion (GPS, HEK-293T) (PSI 1-6); higher = more stable;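 note: lentivirally expressed fusions sorted by FACS into six bins by GFP to DsRed ratio, PSI derived from sequencing read proportions per bin multiplied by bin number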
# conditionSummary: c terminus: a fixed tail appended
Mark criterion met for reported protein stability index of 2 or greater; mark criterion not met for anything smaller.

Record excerpt, results attached:
INSERT INTO measurements (itemsequence, labelclass) VALUES
  ('LLRHQRIHTGERPYKCPECGKSSS [F23S]', 'criterion met'),
  ('LLRHQRIHTGERPYKCPEAGKSFS [C19A]', 'criterion met'),
  ('LLRHQRIHTGERPYKCPECDKSFS [G20D]', 'criterion met'),
  ('LLRHQRIHTGERDYKCPECGKSFS [P13D]', 'criterion met'),
  ('LLRHQRIHTGERPYKCPECGVSFS [K21V]', 'criterion not met'),
  ('LLRHQRIHTGERPYKCPECGKSFL [S24L]', 'criterion met'),
  ('LLRHQRIHTGERPYKCPEKGKSFS [C19K]', 'criterion met'),
  ('LLRHQRIHTGEREYKCPECGKSFS [P13E]', 'criterion met'),
  ('LLRHQREHTGERPYKCPECGKSFS [I7E]', 'criterion met'),
  ('LLRHQRIHTGERPYKCHECGKSFS [P17H]', 'criterion not met');

With those in mind, consider the next variant.
### Prompt State whether the measured protein stability index reaches 2, counting equality as reaching it, for LLRHQRIHTGERPYKQPECGKSFS [C16Q]
### Response criterion met
